System: Quadruplex DNA
Assay: Binding affinity to TTRG3 G-quadruplex (unknown origin) assessed as hyperchromic shift by measuring increase in absorbance intensity at 1 uM by UV-Visible spectrophotometric analysis
Assay type: nucleic-acid assay
Active and inactive are the calls of the source. No cut-off for these calls is given here.
Possible outcomes: active, inactive

{"columns": ["Sample Smiles", "Class"],
 "data": [
  ["CN1/C(=C/c2cc[n+](C)c3ccccc23)Sc2ccccc21.Cc1ccc(S(=O)(=O)[O-])cc1", "active"],
  ["C[n+]1ccc(-c2c3nc(c(-c4cc[n+](C)cc4)c4ccc([nH]4)c(-c4cc[n+](C)cc4)c4ccc([nH]4)c(-c4cc[n+](C)cc4)c4nc2C=C4)C=C3)cc1", "active"],
  ["CCC1=C(C)c2cc3[nH]c(cc4nc(cc5c(CC)c(C)c(cc1n2)n5C)C(C)=C4CCC(=O)O)c(CCC(=O)O)c3C", "active"],
  ["CN(C)c1ccc(Nc2c3ccc(NC(=O)CCN4CCCC4)cc3nc3cc(NC(=O)CCN4CCCC4)ccc23)cc1", "inactive"]
]}

* * *

Test system: Quadruplex DNA
Experiment: Binding affinity to TTRG3 G-quadruplex (unknown origin) assessed as increase in fluorescence by measuring red shift at 1 uM by UV-Visible spectrophotometric analysis
Assay type: nucleic-acid assay
Calls of active or inactive are those of the source. The calls are words filed in the database; no cut-off is given here.
Possible outcomes: active, inactive

{"columns": ["Sample Smiles", "Class"],
 "data": [
  ["CCC1=C(C)c2cc3[nH]c(cc4nc(cc5c(CC)c(C)c(cc1n2)n5C)C(C)=C4CCC(=O)O)c(CCC(=O)O)c3C", "active"],
  ["CN(C)c1ccc(Nc2c3ccc(NC(=O)CCN4CCCC4)cc3nc3cc(NC(=O)CCN4CCCC4)ccc23)cc1", "inactive"],
  ["CN1/C(=C/c2cc[n+](C)c3ccccc23)Sc2ccccc21.Cc1ccc(S(=O)(=O)[O-])cc1", "active"],
  ["C[n+]1ccc(-c2c3nc(c(-c4cc[n+](C)cc4)c4ccc([nH]4)c(-c4cc[n+](C)cc4)c4ccc([nH]4)c(-c4cc[n+](C)cc4)c4nc2C=C4)C=C3)cc1", "active"]
]}

* * *

Tested on: Quadruplex DNA
Assay: Stabilization of TTRG3 G-quadruplex (unknown origin) assessed as melting temperature in presence of K+ by circular dichroism analysis
Type: nucleic-acid assay

{"columns": ["Sample Smiles", "Tm [°C]"],
 "data": [
  ["CN(C)c1ccc(Nc2c3ccc(NC(=O)CCN4CCCC4)cc3nc3cc(NC(=O)CCN4CCCC4)ccc23)cc1", 54.8],
  ["C[n+]1ccc(-c2c3nc(c(-c4cc[n+](C)cc4)c4ccc([nH]4)c(-c4cc[n+](C)cc4)c4ccc([nH]4)c(-c4cc[n+](C)cc4)c4nc2C=C4)C=C3)cc1", 69.4],
  ["CCC1=C(C)c2cc3[nH]c(cc4nc(cc5c(CC)c(C)c(cc1n2)n5C)C(C)=C4CCC(=O)O)c(CCC(=O)O)c3C", 64],
  ["CN1/C(=C/c2cc[n+](C)c3ccccc23)Sc2ccccc21.Cc1ccc(S(=O)(=O)[O-])cc1", 53.3]
]}

* * *

Tested on: Quadruplex DNA
Experiment: Binding affinity to TTRG3 G-quadruplex (unknown origin) assessed as increase in fluorescence intensity at 2 uM by fluorescence titration spectra analysis
Format: nucleic-acid assay
Activity calls are given as the source filed them. No cut-off for these calls is given here.
Possible outcomes: yes (1) for active, no (0) for inactive

{"columns": ["Sample Smiles", "Class"],
 "data": [
  ["CCC1=C(C)c2cc3[nH]c(cc4nc(cc5c(CC)c(C)c(cc1n2)n5C)C(C)=C4CCC(=O)O)c(CCC(=O)O)c3C", "yes (1)"],
  ["C[n+]1ccc(-c2c3nc(c(-c4cc[n+](C)cc4)c4ccc([nH]4)c(-c4cc[n+](C)cc4)c4ccc([nH]4)c(-c4cc[n+](C)cc4)c4nc2C=C4)C=C3)cc1", "no (0)"],
  ["CN1/C(=C/c2cc[n+](C)c3ccccc23)Sc2ccccc21.Cc1ccc(S(=O)(=O)[O-])cc1", "yes (1)"],
  ["CN(C)c1ccc(Nc2c3ccc(NC(=O)CCN4CCCC4)cc3nc3cc(NC(=O)CCN4CCCC4)ccc23)cc1", "no (0)"]
]}

* * *

Tested on: Quadruplex DNA
Assay: Stabilization of TTRG3 G-quadruplex (unknown origin) assessed as change in melting temperature in presence of K+ by circular dichroism analysis
Type: nucleic-acid assay
# ΔTm listing for each entry below
Assay Endpoint: ΔTm (°C)

{"columns": ["Sample Smiles", "Tested Target", "Assay Endpoint", "Test Result"],
 "data": [
  ["CN(C)c1ccc(Nc2c3ccc(NC(=O)CCN4CCCC4)cc3nc3cc(NC(=O)CCN4CCCC4)ccc23)cc1", "Quadruplex DNA", "ΔTm", 6.9],
  ["CN1/C(=C/c2cc[n+](C)c3ccccc23)Sc2ccccc21.Cc1ccc(S(=O)(=O)[O-])cc1", "Quadruplex DNA", "ΔTm", 5.4],
  ["CCC1=C(C)c2cc3[nH]c(cc4nc(cc5c(CC)c(C)c(cc1n2)n5C)C(C)=C4CCC(=O)O)c(CCC(=O)O)c3C", "Quadruplex DNA", "ΔTm", 16.1],
  ["C[n+]1ccc(-c2c3nc(c(-c4cc[n+](C)cc4)c4ccc([nH]4)c(-c4cc[n+](C)cc4)c4ccc([nH]4)c(-c4cc[n+](C)cc4)c4nc2C=C4)C=C3)cc1", "Quadruplex DNA", "ΔTm", 21.5]
]}
